Data provenance: the supplement of paper PMC10567573

B1: FAM189A2 (parent)
chain: CALNALTTTVCLVAAALRYLQIFA

- Variants of: B1
- procedure-details: protein stability index of a GFP-peptide fusion (GPS, HEK-293T) (PSI 1-6); higher = more stable;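 note: lentivirally expressed fusions sorted by FACS into six bins by GFP to DsRed ratio, PSI derived from sequencing read proportions per bin multiplied by bin number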
- experimental-setup: c terminus: a fixed tail appended
quantity: protein stability index

Use the examples below as a reference point.
protein stability index for `F23H` ? 4.92

Same again, this time with `A14E` 3.46

Same again, this time with `A24H` 3.64

Same again, this time with `V10K` 2.08

Same again, this time with `N4I` 2.87

Others:
protein stability index for `L12Y` ? 3.88

Same again, this time with `C11P` 2.3

Same again, this time with `N4W` 2.84

Same again, this time with `A15R` 2.41

Same again, this time with `I22G` 3.11
